assay: in vivo; conditions: Wistar, rat, po, 2 mg/kg
Field: Cmax. Provide a value for each of the compounds that follow.
Give bare numbers, in µg/mL.

Guide cases for Cmax, answers given:
[[record]]
structure_smiles = "C[C@@H]1CN(c2sc(C(F)(F)F)nc2-c2nc3ccccc3[nH]2)CCN1C(=O)Cn1cnc2cccnc21"
endpoint_result = 0.0913

[[record]]
structure_smiles = "CCOc1ncc(-c2nc(C(F)(F)F)sc2N2CCN(C(=O)Cn3nc(C)nc3C)[C@H](C)C2)cn1"
endpoint_result = 0.574

[[record]]
structure_smiles = "Cc1nc(C)n(CC(=O)N2CCN(c3sc(C(F)(F)F)nc3-c3cnc(C(F)(F)F)nc3)C[C@H]2C)n1"
endpoint_result = 1.52


Next compound, Cmax to be filled in.
Query: Cmax lookup needed for "Cc1nc(C)n(CC(=O)N2CCN(c3sc(C(F)(F)F)nc3-c3cnc(OC(C)C)nc3)C[C@H]2C)n1" , thanks.
Response: 0.806

====

assay: Metabolic stability in Beagle dog hepatocyte assessed as intrinsic clearance measured per 10^6 cells in presence of NADPH regenerating system by LC-MS/MS analysis; settings: hepatocytes
reported property: hepatocyte CLint (µL/min/1e6 cells)
Numbers only, in µL/min/1e6 cells.

[[record]]
structure_smiles = "Cc1nc(C)n(CC(=O)N2CCN(c3sc(C(F)(F)F)nc3-c3cnc(OC(C)C)nc3)C[C@H]2C)n1"
endpoint_result = 6.8


Next molecule, hepatocyte CLint to be filled in.
Query: hepatocyte CLint lookup needed for "CCOc1ncc(-c2nc(C(F)(F)F)sc2N2CCN(C(=O)Cn3nc(C)nc3C)[C@H](C)C2)cn1" , thanks.
Response: 5.1

====

Field: AUC. Provide a value for each of the molecules that follow.
experiment: in vivo; conditions: beagle, dog, po, 2 mg/kg
Answers are plain numbers, in ng·h/mL.

[[record]]
structure_smiles = "CCOc1ncc(-c2nc(C(F)(F)F)sc2N2CCN(C(=O)Cn3nc(C)nc3C)[C@H](C)C2)cn1"
endpoint_result = 861


Next molecule, AUC to be filled in.
Query: AUC lookup needed for "Cc1nc(C)n(CC(=O)N2CCN(c3sc(C(F)(F)F)nc3-c3cnc(C(F)(F)F)nc3)C[C@H]2C)n1" , thanks.
Response: 20000

====

The following are reported pIC50 results, target or system C-X-C chemokine receptor type 3 (Homo sapiens, UniProt P49682).
Answers are plain numbers, as −log10 of the molar value.

[[record]]
structure_smiles = "Cc1nc(C)n(CC(=O)N2CCN(c3sc(C(F)(F)F)nc3-c3cnc(N4CCCC4)nc3)C[C@H]2C)n1"
endpoint_result = 6.45

[[record]]
structure_smiles = "C[C@@H]1CN(c2sc(CO)nc2-c2nc3ccccc3[nH]2)CCN1C(=O)Cn1cnc2cccnc21"
endpoint_result = 5.47

[[record]]
structure_smiles = "O=C(Cn1cnc2cccnc21)N1CCN(c2scnc2-c2nc3ccccc3[nH]2)CC1"
endpoint_result = 5.84

[[record]]
structure_smiles = "Cc1nc(-c2nc3ccccc3[nH]2)c(N2CCN(C(=O)Cn3cnc4cccnc43)[C@H](C)C2)s1"
endpoint_result = 5.97


Give pIC50 for each listed item.
1. C[C@@H]1CN(c2sc(C(F)(F)F)nc2-c2nc3ccccc3[nH]2)CCN1C(=O)Cn1cnc2cccnc21
2. Cc1nc(C)n(CC(=O)N2CCN(c3sc(C(F)(F)F)nc3-c3cnc(OC4CCC4)nc3)C[C@H]2C)n1
3. CCOc1ncc(-c2nc(C(F)(F)F)sc2N2CCN(C(=O)Cn3nc(C)cc3C)[C@H](C)C2)cn1
4. C[C@@H]1CN(c2sc(CN(C)C)nc2-c2nc3ccccc3[nH]2)CCN1C(=O)Cn1cnc2cccnc21

Response:
7.15
6.51
7.22
5.94

====

Field: pIC50. Provide a value for each of the molecules that follow.
Biological target: C-X-C chemokine receptor type 3 (Homo sapiens)
Sequence (P49682 whole entry): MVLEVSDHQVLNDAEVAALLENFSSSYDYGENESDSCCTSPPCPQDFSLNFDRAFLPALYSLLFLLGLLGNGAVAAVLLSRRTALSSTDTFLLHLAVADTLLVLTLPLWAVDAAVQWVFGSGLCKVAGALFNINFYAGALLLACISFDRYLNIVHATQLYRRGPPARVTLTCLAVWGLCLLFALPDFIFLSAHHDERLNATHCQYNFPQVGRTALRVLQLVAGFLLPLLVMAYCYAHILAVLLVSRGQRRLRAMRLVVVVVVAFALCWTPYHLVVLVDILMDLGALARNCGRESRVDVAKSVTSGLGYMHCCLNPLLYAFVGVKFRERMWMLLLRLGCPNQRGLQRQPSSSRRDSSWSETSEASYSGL
One number for each entry, as −log10 of the molar value.

Guide cases for pIC50, answers given:
[[record]]
structure_smiles = "C[C@@H]1CN(c2sc(C3COC3)nc2-c2nc3ccccc3[nH]2)CCN1C(=O)Cn1cnc2cccnc21"
reported_property = "pIC50"
endpoint_result = 5.94

[[record]]
structure_smiles = "CCOc1ncc(-c2nc(C(F)(F)F)sc2N2CCN(C(=O)Cn3nccc3C)[C@H](C)C2)cn1"
reported_property = "pIC50"
endpoint_result = 6.54

[[record]]
structure_smiles = "CCOc1ncc(-c2nc(C(F)(F)F)sc2N2CCN(C(=O)Cn3c(=O)oc4ccccc43)[C@H](C)C2)cn1"
reported_property = "pIC50"
endpoint_result = 6.27


Give pIC50 for each listed item.
1. Cc1nc(C)n(CC(=O)N2CCN(c3sc(C(F)(F)F)nc3-c3cnc(C4CC4)nc3)C[C@H]2C)n1
2. CCOc1ncc(-c2nc(C(F)(F)F)sc2N2CCN(C(=O)Cn3ccc(C(F)(F)F)n3)[C@H](C)C2)cn1
3. COc1ncc(-c2nc(C(F)(F)F)sc2N2CCN(C(=O)Cn3cnc4cccnc43)[C@H](C)C2)cn1

Response:
1. 6.17
2. 7.05
3. 6.80

====

Field: fraction unbound. Provide a value for each of the compounds that follow.
test: Fractional unbound plasma concentration in Wistar rat at 0.5 mg/kg, iv and 2 mg/kg, po; settings: in vivo
One number for each entry.

[[record]]
structure_smiles = "Cc1nc(C)n(CC(=O)N2CCN(c3sc(C(F)(F)F)nc3-c3cnc(OC(C)C)nc3)C[C@H]2C)n1"
endpoint_result = 0.035


Next compound, fraction unbound to be filled in.
Query: fraction unbound lookup needed for "CCOc1ncc(-c2nc(C(F)(F)F)sc2N2CCN(C(=O)Cn3nc(C)nc3C)[C@H](C)C2)cn1" , thanks.
Response: 0.101

====

assay: Solubility of the compound in pH 7 buffer
reported property: solubility (µg/mL)
Answers are plain numbers, in µg/mL.

Query: solubility lookup needed for "Cc1nc(C)n(CC(=O)N2CCN(c3sc(C(F)(F)F)nc3-c3cnc(C(F)(F)F)nc3)C[C@H]2C)n1" , thanks.
Response: 387

====

assay: in vivo; conditions: beagle, dog, po, 2 mg/kg
reported property: bioavailability (%)
Answers are plain numbers, in %.

[[record]]
structure_smiles = "Cc1nc(C)n(CC(=O)N2CCN(c3sc(C(F)(F)F)nc3-c3cnc(C(F)(F)F)nc3)C[C@H]2C)n1"
endpoint_result = 80


Next compound, bioavailability to be filled in.
Query: bioavailability lookup needed for "CCOc1ncc(-c2nc(C(F)(F)F)sc2N2CCN(C(=O)Cn3nc(C)nc3C)[C@H](C)C2)cn1" , thanks.
Response: 52

====

assay: in vivo; conditions: Wistar, rat, po, 2 mg/kg
reported property: AUC

Guide cases for AUC, answers given:
[[record]]
structure_smiles = "Cc1nc(C)n(CC(=O)N2CCN(c3sc(C(F)(F)F)nc3-c3cnc(C(F)(F)F)nc3)C[C@H]2C)n1"
reported_property = "AUC"
endpoint_result = "14000 ng·h/mL"

[[record]]
structure_smiles = "CCOc1ncc(-c2nc(C(F)(F)F)sc2N2CCN(C(=O)Cn3nc(C)nc3C)[C@H](C)C2)cn1"
reported_property = "AUC"
endpoint_result = "2850 ng·h/mL"

[[record]]
structure_smiles = "C[C@@H]1CN(c2sc(C(F)(F)F)nc2-c2nc3ccccc3[nH]2)CCN1C(=O)Cn1cnc2cccnc21"
reported_property = "AUC"
endpoint_result = "191 ng·h/mL"


Query: AUC lookup needed for "Cc1nc(C)n(CC(=O)N2CCN(c3sc(C(F)(F)F)nc3-c3cnc(OC(C)C)nc3)C[C@H]2C)n1" , thanks.
Response: 3980 ng·h/mL

====

target: Voltage-gated inwardly rectifying potassium channel KCNH2 (Homo sapiens, UniProt Q12809); experiment: Inhibition of hERG expressed in CHO cells by Q patch-clamp method
Sequence (Q12809 whole entry): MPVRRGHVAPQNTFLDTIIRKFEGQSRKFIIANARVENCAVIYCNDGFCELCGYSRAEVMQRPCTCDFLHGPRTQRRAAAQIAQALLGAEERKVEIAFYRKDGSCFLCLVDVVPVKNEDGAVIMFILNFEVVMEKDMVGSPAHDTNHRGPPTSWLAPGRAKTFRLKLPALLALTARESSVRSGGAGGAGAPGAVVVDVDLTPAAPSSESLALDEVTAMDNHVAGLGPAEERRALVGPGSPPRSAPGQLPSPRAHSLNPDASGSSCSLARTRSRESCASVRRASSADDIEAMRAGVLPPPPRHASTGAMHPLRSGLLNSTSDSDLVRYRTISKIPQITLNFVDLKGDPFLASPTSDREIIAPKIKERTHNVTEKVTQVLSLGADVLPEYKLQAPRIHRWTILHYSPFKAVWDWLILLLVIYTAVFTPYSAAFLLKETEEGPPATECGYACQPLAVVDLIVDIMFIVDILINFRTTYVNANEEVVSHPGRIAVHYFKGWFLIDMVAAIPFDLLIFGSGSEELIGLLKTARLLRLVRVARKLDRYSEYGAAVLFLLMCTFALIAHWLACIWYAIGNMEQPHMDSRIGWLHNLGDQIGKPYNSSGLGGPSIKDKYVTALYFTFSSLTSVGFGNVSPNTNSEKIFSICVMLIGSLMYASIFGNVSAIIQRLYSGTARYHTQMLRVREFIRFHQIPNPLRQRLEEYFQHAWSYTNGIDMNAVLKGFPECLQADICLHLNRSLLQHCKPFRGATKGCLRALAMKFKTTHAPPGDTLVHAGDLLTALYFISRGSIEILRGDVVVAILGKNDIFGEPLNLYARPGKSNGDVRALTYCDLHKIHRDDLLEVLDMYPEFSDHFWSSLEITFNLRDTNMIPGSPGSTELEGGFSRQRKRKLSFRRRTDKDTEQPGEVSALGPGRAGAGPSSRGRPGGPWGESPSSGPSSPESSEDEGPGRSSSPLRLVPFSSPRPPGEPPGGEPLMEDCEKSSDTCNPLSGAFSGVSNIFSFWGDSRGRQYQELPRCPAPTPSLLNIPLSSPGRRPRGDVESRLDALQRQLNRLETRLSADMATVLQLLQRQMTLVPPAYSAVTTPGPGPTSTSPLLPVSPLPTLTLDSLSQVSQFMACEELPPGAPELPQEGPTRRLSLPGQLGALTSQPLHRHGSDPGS
reported property: pIC50
Answers are plain numbers, as −log10 of the molar value.

[[record]]
structure_smiles = "C[C@@H]1CN(c2sc(C3CC3)nc2-c2nc3ccccc3[nH]2)CCN1C(=O)Cn1cnc2cccnc21"
reported_property = "pIC50"
endpoint_result = 6.42


Give pIC50 for each listed item.
1. CCOc1ncc(-c2nc(C(F)(F)F)sc2N2CCN(C(=O)Cn3ccc4cnccc43)[C@H](C)C2)cn1
2. CCOc1ncc(-c2nc(C(F)(F)F)sc2N2CCN(C(=O)Cn3cc(Cl)cn3)[C@H](C)C2)cn1
3. C[C@@H]1CN(c2sc(C(F)(F)F)nc2-c2nc3ccccc3[nH]2)CCN1C(=O)Cn1cnc2cccnc21

Response:
[6.24, 5.55, 5.76]
